TESTED ON: T1, human prolactin receptor (PRLR) on cells (human, UniProt P16471 25-622)
T1 construct: T47D, T47D#11 and MCF7 carry the endogenous receptor; also called hPRLR; HEK293/hPRLR
T1 sequence: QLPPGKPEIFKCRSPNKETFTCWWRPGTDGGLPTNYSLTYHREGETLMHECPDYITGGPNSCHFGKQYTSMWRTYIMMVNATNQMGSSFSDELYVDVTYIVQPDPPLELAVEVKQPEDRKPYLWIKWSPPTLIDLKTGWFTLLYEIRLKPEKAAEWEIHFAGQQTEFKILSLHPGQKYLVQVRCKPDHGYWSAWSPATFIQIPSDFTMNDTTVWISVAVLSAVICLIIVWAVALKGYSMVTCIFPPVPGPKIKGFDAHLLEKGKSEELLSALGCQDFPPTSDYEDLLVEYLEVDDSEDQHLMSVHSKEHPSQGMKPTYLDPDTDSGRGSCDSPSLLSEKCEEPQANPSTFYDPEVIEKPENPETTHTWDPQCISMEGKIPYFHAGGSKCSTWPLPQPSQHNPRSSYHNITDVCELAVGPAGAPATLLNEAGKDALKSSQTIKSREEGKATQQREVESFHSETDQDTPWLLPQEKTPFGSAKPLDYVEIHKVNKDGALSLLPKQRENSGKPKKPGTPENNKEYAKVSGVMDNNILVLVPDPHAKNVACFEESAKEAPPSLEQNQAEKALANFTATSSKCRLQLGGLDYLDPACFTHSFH
ASSAY METHOD TEXT: FACS, HEK293/hPRLR cells; further: test concentration or dose not given here
METRIC: FACS Cell Binding (Fold Above Background) (fold above background)

BINDER	UNIT OF MEASURE	ENDPOINT RESULT
H1H6792P (antibody, human IgG1, V domains shown, human IgG1 Fc (H1H)) VH: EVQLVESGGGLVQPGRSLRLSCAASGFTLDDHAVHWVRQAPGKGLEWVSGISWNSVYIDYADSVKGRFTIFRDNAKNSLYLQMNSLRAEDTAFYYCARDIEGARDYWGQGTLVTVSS VL: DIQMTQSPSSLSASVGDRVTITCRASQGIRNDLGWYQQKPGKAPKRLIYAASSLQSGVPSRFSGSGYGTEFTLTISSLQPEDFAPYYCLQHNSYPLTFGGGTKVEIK	fold above background	37
H1H6782P (antibody, human IgG1, V domains shown, human IgG1 Fc (H1H)) VH: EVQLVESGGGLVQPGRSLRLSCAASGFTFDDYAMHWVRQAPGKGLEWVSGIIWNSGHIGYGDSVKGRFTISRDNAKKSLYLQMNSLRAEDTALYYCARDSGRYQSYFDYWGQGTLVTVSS VL: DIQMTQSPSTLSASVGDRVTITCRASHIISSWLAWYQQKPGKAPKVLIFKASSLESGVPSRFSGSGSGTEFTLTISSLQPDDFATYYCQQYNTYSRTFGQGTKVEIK	fold above background	41
H1H6793P (antibody, human IgG1, V domains shown, human IgG1 Fc (H1H)) VH: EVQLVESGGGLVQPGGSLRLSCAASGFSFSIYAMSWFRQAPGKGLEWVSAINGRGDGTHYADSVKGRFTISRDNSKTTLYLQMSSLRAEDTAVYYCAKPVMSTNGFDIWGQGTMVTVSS VL: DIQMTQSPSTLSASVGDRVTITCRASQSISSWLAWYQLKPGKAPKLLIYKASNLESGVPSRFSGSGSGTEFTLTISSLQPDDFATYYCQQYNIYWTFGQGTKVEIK	fold above background	2
H1H6781P (antibody, human IgG1, V domains shown, human IgG1 Fc (H1H)) VH: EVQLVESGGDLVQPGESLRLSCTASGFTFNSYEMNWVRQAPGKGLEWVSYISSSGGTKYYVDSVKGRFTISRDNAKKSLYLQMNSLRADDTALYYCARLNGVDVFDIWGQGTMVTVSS VL: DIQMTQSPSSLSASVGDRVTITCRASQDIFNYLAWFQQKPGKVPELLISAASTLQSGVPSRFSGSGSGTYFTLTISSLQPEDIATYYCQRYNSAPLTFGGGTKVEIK	fold above background	37
H1H6785P (antibody, human IgG1, V domains shown, human IgG1 Fc (H1H)) VH: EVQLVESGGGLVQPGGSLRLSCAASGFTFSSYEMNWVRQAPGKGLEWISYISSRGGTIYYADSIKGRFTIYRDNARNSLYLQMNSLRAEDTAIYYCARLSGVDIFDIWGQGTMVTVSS VL: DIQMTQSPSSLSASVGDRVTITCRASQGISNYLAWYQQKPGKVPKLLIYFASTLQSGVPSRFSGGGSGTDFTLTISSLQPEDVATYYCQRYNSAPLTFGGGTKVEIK	fold above background	37
H1H6797P (antibody, human IgG1, V domains shown, human IgG1 Fc (H1H)) VH: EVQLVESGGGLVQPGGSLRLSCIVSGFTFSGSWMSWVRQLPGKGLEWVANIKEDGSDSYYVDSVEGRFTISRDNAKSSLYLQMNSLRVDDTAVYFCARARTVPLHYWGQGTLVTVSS VL: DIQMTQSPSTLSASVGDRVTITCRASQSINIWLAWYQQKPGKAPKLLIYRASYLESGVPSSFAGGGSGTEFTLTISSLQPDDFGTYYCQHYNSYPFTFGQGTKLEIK	fold above background	1
H1H6976N (antibody, human IgG1, V domains shown, also called H2M6976N) VH: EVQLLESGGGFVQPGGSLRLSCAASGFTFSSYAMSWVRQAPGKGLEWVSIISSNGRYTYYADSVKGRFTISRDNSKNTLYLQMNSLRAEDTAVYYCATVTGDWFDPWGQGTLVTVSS VL: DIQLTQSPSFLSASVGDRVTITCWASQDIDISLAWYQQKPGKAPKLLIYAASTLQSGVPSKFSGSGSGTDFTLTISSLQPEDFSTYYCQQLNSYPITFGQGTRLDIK	fold above background	8
H1H6803P (antibody, human IgG1, V domains shown, human IgG1 Fc (H1H)) VH: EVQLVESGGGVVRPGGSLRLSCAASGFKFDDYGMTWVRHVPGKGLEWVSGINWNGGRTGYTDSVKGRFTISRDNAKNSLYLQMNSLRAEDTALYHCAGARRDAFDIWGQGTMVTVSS VL: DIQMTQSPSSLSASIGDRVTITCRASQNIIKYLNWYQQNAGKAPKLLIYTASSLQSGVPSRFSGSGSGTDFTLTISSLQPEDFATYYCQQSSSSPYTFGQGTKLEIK	fold above background	39
H1H6958N2 (antibody, human IgG1, V domains shown, also called H2M6958N2) VH: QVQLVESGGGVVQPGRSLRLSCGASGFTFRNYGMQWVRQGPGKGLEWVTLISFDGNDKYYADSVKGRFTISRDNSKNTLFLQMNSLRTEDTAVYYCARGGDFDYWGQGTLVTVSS VL: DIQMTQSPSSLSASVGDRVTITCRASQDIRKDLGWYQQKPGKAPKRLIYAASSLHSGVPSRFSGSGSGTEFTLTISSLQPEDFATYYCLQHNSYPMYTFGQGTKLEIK	fold above background	35
H1H6762P (antibody, human IgG1, V domains shown, human IgG1 Fc (H1H)) VH: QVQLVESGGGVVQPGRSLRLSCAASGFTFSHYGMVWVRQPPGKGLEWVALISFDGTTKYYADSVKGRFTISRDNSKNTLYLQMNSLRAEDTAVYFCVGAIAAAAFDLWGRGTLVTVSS VL: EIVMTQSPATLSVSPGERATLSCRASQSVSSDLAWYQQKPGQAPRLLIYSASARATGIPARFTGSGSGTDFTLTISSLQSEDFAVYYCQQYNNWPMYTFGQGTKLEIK	fold above background	36
